testTarget: CDK9 (Homo sapiens, UniProt P50750)
Construct: endogenous in cells; host or cells: MDA-MB-231
Sequence (P50750 whole entry): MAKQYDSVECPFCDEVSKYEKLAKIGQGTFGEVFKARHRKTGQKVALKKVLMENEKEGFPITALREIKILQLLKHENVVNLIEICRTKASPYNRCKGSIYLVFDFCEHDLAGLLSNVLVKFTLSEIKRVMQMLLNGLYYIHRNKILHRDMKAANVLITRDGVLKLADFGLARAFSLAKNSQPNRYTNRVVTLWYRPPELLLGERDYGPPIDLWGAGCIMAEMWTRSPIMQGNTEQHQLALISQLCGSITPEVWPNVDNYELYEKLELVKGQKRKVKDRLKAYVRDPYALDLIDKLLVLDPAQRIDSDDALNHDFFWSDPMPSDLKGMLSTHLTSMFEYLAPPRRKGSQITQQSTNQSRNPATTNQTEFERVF
procedureDetails: CDK protein degradation activity (Western blotting), CDK9
Assay type: cell-based
measurementParameters: MDA-MB-231 cells, 1 μM, 16 hours, Western blot
readoutLabel: Enzyme degradation CDK9 (% remaining) @ 1 μM (%)
The response must be a number in % with no trailing unit.

O=C1CC[C@H](N2C(=O)c3cccc(N4CCN(CCCN5CCN(c6ccc(Nc7ncnc8c7ncn8C7CC(NC(=O)Cc8ccccc8)C7)cc6)CC5)CC4)c3C2=O)C(=O)N1 (some centres unmarked) :: 20

Query compound follows.
Task item: Missing value: Enzyme degradation CDK9 (% remaining) @ 1 μM, CDK9 (Homo sapiens, UniProt P50750), entry O=C1CC[C@H](N2C(=O)C=C(Nc3cccc(CC(=O)N4CCC(CC(=O)N5CCN(c6ccc(Nc7ncnc8c7ncn8[C@H]7C[C@@H](NC(=O)Cc8ccccc8)C7)cc6)CC5)CC4)c3)C2=O)C(=O)N1 . Fill in?
Reply: 40
